Provenance of the data: patent US11046710B2

Overview of reported IC50 across a group of molecules:
biological target: UniProtKB P05186; assay: Inhibitory test of TNAP activity (pNPP substrate, p-nitrophenol production); conditions: human TNAP from transfected COS1 culture supernatant, 60 minutes at room temperature
Hi! Could you send only the number? It should be in nM, unit omitted.

Examples with answers:
Indicate the recorded IC50 value for this molecule: COc1ccc(Cl)cc1S(=O)(=O)Nc1cnc2c(c1)C(=O)N1CCC[C@H]1CO2
13.2

Assign IC50 to the following record: COc1ccc(Cl)cc1S(=O)(=O)Nc1cnc2c(c1)C(=O)N1CC[C@H](O)[C@@H]1CO2
0.4

Please give the documented IC50 of CCOc1ccc(F)cc1S(=O)(=O)Nc1cnc2c(c1)-c1ccnn1[C@@H](C)CO2
2.8

Indicate its recorded IC50; the molecule in question is O=C1[C@@H](O)C[C@H]2COc3ncc(NS(=O)(=O)c4cc(Cl)ccc4OC(F)(F)F)cc3CN12
1.4

Using the record for CC(=O)O[C@H]1C[C@@H]2COc3ncc(NS(=O)(=O)c4cc(Cl)ccc4OC(F)(F)F)cc3C(=O)N2C1 , state its measured IC50.
1.5

Others:
Return value of IC50 for input COc1ccc(Cl)cc1S(=O)(=O)Nc1cnc2c(c1)C(=O)N1CC[C@@H](O)[C@@H]1CO2 , no commentary.
5.8

Using known records, supply IC50 for CCc1nnc2n1CCOc1ncc(NS(=O)(=O)c3cc(Cl)ccc3OC)cc1-2
2.4

Give the value of IC50 reported for the following: O=C1COCC2COc3ncc(NS(=O)(=O)c4cc(Cl)ccc4OC(F)(F)F)cc3CN12 (stereo not shown)
1.4

Identify IC50 associated with the molecule COc1ccc(Cl)cc1S(=O)(=O)Nc1cnc2c(c1)C(=O)N1C[C@@H](OC)C[C@@H]1CO2
0.5

Note IC50 for the molecule shown: CCOc1ccc(F)cc1S(=O)(=O)Nc1cnc2c(c1)-c1ccnn1CCO2
3.4

Provide one value: measured IC50 of COc1ccc(Cl)cc1S(=O)(=O)Nc1cnc2c(c1)C(=O)N1C[C@H](O)C[C@@H]1CO2
0.9

Input COc1ccc(Cl)cc1S(=O)(=O)Nc1cnc2c(c1)-c1ccnn1CCO2 , output reported IC50.
6.5

Return the recorded IC50 value; entry: CCOc1ncc(F)cc1S(=O)(=O)Nc1cnc2c(c1)-c1ccnn1[C@@H](C)CO2
2.3

Determine from records and report IC50 for COc1ccc(Cl)cc1S(=O)(=O)Nc1cnc2c(c1)-c1nnc(C)n1CCO2
2.6

Supply recorded IC50 for CCOc1ccc(F)cc1S(=O)(=O)Nc1cnc2c(c1)CN1C(=O)COC[C@H]1CO2 here.
0.6

Answer with reported IC50 of COc1ccc(Cl)cc1S(=O)(=O)Nc1cnc2c(c1)C(=O)N1C[C@@H](F)C[C@@H]1CO2
0.8

* * *

biological target: human TNAP (Homo sapiens (Human)); test: Inhibitory test of TNAP activity (pNPP substrate, p-nitrophenol production); type: biochemical; details: human TNAP from transfected COS1 culture supernatant, 60 minutes at room temperature
Sequence (P05186 18-524): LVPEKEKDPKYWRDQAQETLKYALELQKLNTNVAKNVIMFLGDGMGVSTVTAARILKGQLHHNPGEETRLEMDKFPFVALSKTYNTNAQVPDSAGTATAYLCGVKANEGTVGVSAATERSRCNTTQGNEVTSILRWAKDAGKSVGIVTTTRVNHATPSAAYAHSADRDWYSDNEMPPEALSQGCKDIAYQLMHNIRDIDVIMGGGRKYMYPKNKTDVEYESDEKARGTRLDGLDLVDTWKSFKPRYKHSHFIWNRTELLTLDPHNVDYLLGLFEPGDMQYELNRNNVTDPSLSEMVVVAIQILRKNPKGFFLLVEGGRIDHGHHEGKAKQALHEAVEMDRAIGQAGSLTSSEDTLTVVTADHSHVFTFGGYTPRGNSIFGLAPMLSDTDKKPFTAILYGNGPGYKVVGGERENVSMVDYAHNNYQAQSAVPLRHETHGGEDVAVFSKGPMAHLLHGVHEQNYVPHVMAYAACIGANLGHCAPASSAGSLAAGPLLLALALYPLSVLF
readout-label: pIC50
pIC50 is a log-scale quantity: -log10 of the concentration expressed in molar.

For orientation, consider the following solved cases.
Specify measured pIC50 for CCOc1ccc(F)cc1S(=O)(=O)Nc1cnc2c(c1)-c1ccnn1[C@H](C)CO2 .
8.38

Using the record for COc1ccc(Cl)cc1S(=O)(=O)Nc1cnc2c(c1)-c1nccn1CCO2 , state its measured pIC50.
8.23

Answer with the recorded pIC50 of COc1ccc(Cl)cc1S(=O)(=O)Nc1cnc2c(c1)C(=O)N1CC(F)(F)C[C@@H]1CO2 only.
8.70

Now look at this one.
State its pIC50: COc1ncc(Cl)cc1S(=O)(=O)Nc1cnc2c(c1)-c1ccnn1[C@H](C)CO2
8.24
